Cited source for all entries: paper PMC6764862

Listed molecules paired with reported Relative effect potency (REP) HepG2
ASSAYED_SYSTEM: human AhR (hAhR) (Homo sapiens)
Sequence (P35869 11-848): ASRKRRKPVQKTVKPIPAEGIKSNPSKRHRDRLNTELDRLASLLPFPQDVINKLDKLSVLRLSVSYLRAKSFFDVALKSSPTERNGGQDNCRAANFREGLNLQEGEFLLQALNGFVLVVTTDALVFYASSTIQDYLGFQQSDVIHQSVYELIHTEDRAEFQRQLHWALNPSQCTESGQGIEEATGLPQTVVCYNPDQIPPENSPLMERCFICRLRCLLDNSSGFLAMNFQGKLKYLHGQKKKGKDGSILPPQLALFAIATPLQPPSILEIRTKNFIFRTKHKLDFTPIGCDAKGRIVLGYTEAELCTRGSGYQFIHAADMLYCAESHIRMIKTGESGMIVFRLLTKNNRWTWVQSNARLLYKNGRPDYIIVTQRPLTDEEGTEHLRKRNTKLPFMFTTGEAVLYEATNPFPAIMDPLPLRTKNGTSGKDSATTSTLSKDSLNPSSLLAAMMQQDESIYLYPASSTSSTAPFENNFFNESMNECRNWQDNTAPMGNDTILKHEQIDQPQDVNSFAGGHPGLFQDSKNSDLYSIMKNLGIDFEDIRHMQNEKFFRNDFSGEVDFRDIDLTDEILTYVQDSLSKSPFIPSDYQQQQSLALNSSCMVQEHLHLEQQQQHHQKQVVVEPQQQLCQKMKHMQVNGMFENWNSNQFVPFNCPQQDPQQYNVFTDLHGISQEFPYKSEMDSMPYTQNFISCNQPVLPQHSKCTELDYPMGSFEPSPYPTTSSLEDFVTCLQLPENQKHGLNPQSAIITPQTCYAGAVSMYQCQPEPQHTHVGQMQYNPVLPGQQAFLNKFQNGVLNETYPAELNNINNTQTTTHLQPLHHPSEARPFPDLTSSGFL
ASSAY_INFO: AhR-dependent pXRE-SV40-Luc luciferase reporter in HepG2 cells
Format: cell-based
ASSAY_CONTEXT: EC50-based, relative to TCDD, human system
Write the number on its own, no unit after it.

Consider the worked cases shown below.
Clc1ccc(-c2cc(Cl)c(Cl)c(Cl)c2)cc1Cl: 0.002
Clc1ccc(-c2cc(Cl)c(Cl)c(Cl)c2)cc1: 0.06

Now consider the entry below.
Entry Clc1cc2c(cc1Cl)Oc1cc(Cl)c(Cl)cc1O2 [TCDD, 2,3,7,8-tetrachlorodibenzo-p-dioxin, reference compound] needs its Relative effect potency (REP) HepG2 filled in; supply it.
1
